Data origin, for the record: patent US20250179161A1

Molecular target: T1, Amyloid Beta (Aβ) 1-42 (human)
T1 construct: The same peptide was used in several aggregation states: fibrils, a heterogeneous aggregate mixture, and soluble oligomers or aggregates; also called Aβ42; Aβ 42
T1 sequence (peptide, as listed by the source): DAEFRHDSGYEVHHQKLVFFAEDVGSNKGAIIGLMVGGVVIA
Assay: SPR (BIAcore T200), Aβ1-42 fibrils immobilized on CM5, Fab as analyte, global 1:1 fit
Can you tell me kon for the items I'm about to list?
Numbers only, in M⁻¹ s⁻¹.

Some binders with known kon results, for comparison:
[[record]]
binder = "h2931 Fab (Fab, V domains shown) VH: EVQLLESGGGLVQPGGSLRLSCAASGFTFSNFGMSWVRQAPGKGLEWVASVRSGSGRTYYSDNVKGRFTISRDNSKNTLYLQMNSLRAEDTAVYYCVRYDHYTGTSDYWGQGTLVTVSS VL: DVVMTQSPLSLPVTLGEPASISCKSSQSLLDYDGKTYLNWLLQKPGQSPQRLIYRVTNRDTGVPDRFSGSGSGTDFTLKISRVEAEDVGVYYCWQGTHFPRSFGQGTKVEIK"
measured_parameter = "kon"
units_of_measure = "M⁻¹ s⁻¹"
number = 123000

[[record]]
binder = "h2726 Fab (Fab, V domains shown) VH: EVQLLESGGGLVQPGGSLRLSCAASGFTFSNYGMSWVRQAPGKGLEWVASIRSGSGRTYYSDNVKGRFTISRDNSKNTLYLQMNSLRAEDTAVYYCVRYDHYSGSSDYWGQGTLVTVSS VL: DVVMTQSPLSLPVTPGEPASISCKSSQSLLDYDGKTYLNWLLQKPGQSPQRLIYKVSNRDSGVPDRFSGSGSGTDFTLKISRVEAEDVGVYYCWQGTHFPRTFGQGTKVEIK"
measured_parameter = "kon"
units_of_measure = "M⁻¹ s⁻¹"
number = 129000

[[record]]
binder = "h2831 Fab (Fab, V domains shown) VH: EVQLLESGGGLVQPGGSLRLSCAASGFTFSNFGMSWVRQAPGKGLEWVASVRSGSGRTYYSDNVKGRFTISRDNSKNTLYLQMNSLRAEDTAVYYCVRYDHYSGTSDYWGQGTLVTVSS VL: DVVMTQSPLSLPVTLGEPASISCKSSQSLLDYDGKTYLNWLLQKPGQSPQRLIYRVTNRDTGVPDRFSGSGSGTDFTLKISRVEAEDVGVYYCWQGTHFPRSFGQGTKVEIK"
measured_parameter = "kon"
units_of_measure = "M⁻¹ s⁻¹"
number = 108000


We now examine a further binder.
Prompt: Item under review: h2731 Fab (Fab, V domains shown) VH: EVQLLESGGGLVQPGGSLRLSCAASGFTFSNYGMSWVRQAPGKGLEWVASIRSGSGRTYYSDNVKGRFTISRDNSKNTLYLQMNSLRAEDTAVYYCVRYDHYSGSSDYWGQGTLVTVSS VL: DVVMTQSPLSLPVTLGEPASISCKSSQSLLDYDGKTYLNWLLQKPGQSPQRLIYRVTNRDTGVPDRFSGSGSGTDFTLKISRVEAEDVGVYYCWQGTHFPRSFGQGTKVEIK . Reported kon?
Response: 129000
